Listed compounds paired with reported AC50
Molecular target: 5-hydroxytryptamine receptor 1A (Homo sapiens)
Assay type: functional, cell-based

Use the examples below as a reference point.
1) Cc1c(C(=O)NN2CCCCC2)nn(-c2ccc(Cl)cc2Cl)c1-c1ccc(Cl)cc1 [RIMONABANT] = > 30 µM
2) O=C(OCC(O)CO)c1ccccc1Nc1ccnc2cc(Cl)ccc12 (stereo unspecified) [GLAFENINE] = > 30 µM
3) Cc1ccc(-c2cc(C(F)(F)F)nn2-c2ccc(S(N)(=O)=O)cc2)cc1 [CELECOXIB] = > 10 µM

Which measured AC50 belongs to CS(=O)(=O)c1ccc(C2=C(c3ccccc3)C(=O)OC2)cc1 [ROFECOXIB] , tested on 5-hydroxytryptamine receptor 1A (Homo sapiens)?
35 µM

Which measured AC50 belongs to `CC[C@@H](C(N)=O)N1CCCC1=O` , tested on 5-hydroxytryptamine receptor 1A (Homo sapiens)?
> 30 µM

Which measured AC50 belongs to CC(=O)Nc1ccc(O)cc1 [ACETAMINOPHEN] , tested on 5-hydroxytryptamine receptor 1A (Homo sapiens)?
> 30 µM

Which measured AC50 belongs to C=CCN1CCCC1CNC(=O)c1cc(S(N)(=O)=O)cc(OC)c1OC (stereo unspecified) [VERALIPRIDE] , tested on 5-hydroxytryptamine receptor 1A (Homo sapiens)?
3.6 µM

Which measured AC50 belongs to CCCC(=O)O[C@]1(C(=O)CO)CC[C@H]2[C@@H]3CCC4=CC(=O)CC[C@]4(C)[C@H]3[C@@H](O)C[C@@]21C [HYDROCORTISONE BUTYRATE] , tested on 5-hydroxytryptamine receptor 1A (Homo sapiens)?
> 10 µM

Which measured AC50 belongs to CN(C)CCC(c1ccc(Cl)cc1)c1ccccn1 (stereo unspecified) [CHLORPHENIRAMINE] , tested on 5-hydroxytryptamine receptor 1A (Homo sapiens)?
> 10 µM

Which measured AC50 belongs to N[C@@H]1[C@H]2CN(c3nc4c(cc3F)c(=O)c(C(=O)O)cn4-c3ccc(F)cc3F)C[C@@H]12 [TROVAFLOXACIN] , tested on 5-hydroxytryptamine receptor 1A (Homo sapiens)?
> 30 µM

Which measured AC50 belongs to C[C@]1(O)CC[C@H]2[C@@H]3CCC4=CC(=O)CC[C@]4(C)[C@@]3(F)[C@@H](O)C[C@@]21C [FLUOXYMESTERONE] , tested on 5-hydroxytryptamine receptor 1A (Homo sapiens)?
> 10 µM

Which measured AC50 belongs to C/C(O)=C(\C#N)C(=O)Nc1ccc(C(F)(F)F)cc1 [TERIFLUNOMIDE] , tested on 5-hydroxytryptamine receptor 1A (Homo sapiens)?
> 30 µM

Which measured AC50 belongs to CNC(=O)c1ccccc1Sc1ccc2c(/C=C/c3ccccn3)n[nH]c2c1 [AXITINIB] , tested on 5-hydroxytryptamine receptor 1A (Homo sapiens)?
> 30 µM

Which measured AC50 belongs to CN1C(=O)C(O)N=C(c2ccccc2)c2cc(Cl)ccc21 (stereo unspecified) [TEMAZEPAM] , tested on 5-hydroxytryptamine receptor 1A (Homo sapiens)?
> 10 µM

----------
// each record: one item and its AC50 for Mu-type opioid receptor (Homo sapiens, UniProt P35372)

Use the examples below as a reference point.
1) CC(C)Nc1ncccn1 = > 30 µM
2) Cc1cc(NS(=O)(=O)c2ccc(N)cc2)nc(C)n1 = > 30 µM
3) COc1cc2nc(N3CCN(C(=O)c4ccco4)CC3)nc(N)c2cc1OC = 17.5 µM

Fill in the blank: the reported AC50 of COc1ccccc1N1CCN(CC(O)COc2cccc3ccccc23)CC1 (stereo unspecified) is ____.
0.9 µM

Fill in the blank: the reported AC50 of NCC(CC(=O)O)c1ccc(Cl)cc1 (stereo unspecified) is ____.
> 30 µM

Fill in the blank: the reported AC50 of `CN(C)S(=O)(=O)c1ccc2c(c1)N(CCCN1CCC(CCO)CC1)c1ccccc1S2` is ____.
3.4 µM

Fill in the blank: the reported AC50 of CCN1CCCC1CNC(=O)c1cc(S(N)(=O)=O)ccc1OC (stereo unspecified) [SULPIRIDE] is ____.
> 30 µM

Fill in the blank: the reported AC50 of `Nc1ccc2cc3ccc(N)cc3nc2c1` is ____.
3.64 µM

Fill in the blank: the reported AC50 of `O=C(O)c1cc(O)ccc1O` is ____.
> 30 µM

Fill in the blank: the reported AC50 of CN(C)CC(c1ccc(O)cc1)C1(O)CCCCC1 (stereo unspecified) is ____.
28.4 µM

Fill in the blank: the reported AC50 of `CCC(CC)(CC(=O)Nc1cccc(/C=C/c2nc(C3CCC3)cs2)c1)C(=O)O` is ____.
> 30 µM

Fill in the blank: the reported AC50 of CCOc1ccccc1OCC1CNCCO1 (stereo unspecified) is ____.
> 30 µM

----------
Listed compounds paired with reported AC50
Molecular target: 5-hydroxytryptamine receptor 1A (Homo sapiens)
Sequence (P08908 whole entry): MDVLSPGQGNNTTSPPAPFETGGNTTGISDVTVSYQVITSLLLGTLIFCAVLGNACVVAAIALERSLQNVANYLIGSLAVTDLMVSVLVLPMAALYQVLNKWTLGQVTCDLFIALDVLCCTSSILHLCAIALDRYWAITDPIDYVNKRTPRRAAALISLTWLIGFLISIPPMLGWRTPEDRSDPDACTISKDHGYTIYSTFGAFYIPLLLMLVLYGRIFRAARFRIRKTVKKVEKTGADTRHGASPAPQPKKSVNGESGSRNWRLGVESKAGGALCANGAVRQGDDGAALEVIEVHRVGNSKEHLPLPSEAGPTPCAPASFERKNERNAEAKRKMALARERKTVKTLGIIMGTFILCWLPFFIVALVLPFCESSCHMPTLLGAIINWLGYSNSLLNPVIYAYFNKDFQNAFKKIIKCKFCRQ

Use the examples below as a reference point.
1. C=CCN1C[C@H](C(=O)N(CCCN(C)C)C(=O)NCC)C[C@@H]2c3cccc4[nH]cc(c34)C[C@H]21 [CABERGOLINE] = 8.3 nM
2. Cc1cccc(Nc2ccccc2C(=O)O)c1C [MEFENAMIC ACID] = > 30000 nM
3. O=[N+]([O-])c1cn2c(n1)OC[C@@H](OCc1ccc(OC(F)(F)F)cc1)C2 [PRETOMANID] = > 30000 nM
4. CCCCCNC(=N)N/N=C/c1c[nH]c2ccc(OC)cc12 [TEGASEROD] = 40 nM

Now look at this entry.
Fill in the blank: the reported AC50 of C=CCCCCCCCCC(=O)O [UNDECYLENIC ACID] is ____.
> 30000 nM

----------
Biological target: UniProt:Q12809
Sequence (Q12809 whole entry): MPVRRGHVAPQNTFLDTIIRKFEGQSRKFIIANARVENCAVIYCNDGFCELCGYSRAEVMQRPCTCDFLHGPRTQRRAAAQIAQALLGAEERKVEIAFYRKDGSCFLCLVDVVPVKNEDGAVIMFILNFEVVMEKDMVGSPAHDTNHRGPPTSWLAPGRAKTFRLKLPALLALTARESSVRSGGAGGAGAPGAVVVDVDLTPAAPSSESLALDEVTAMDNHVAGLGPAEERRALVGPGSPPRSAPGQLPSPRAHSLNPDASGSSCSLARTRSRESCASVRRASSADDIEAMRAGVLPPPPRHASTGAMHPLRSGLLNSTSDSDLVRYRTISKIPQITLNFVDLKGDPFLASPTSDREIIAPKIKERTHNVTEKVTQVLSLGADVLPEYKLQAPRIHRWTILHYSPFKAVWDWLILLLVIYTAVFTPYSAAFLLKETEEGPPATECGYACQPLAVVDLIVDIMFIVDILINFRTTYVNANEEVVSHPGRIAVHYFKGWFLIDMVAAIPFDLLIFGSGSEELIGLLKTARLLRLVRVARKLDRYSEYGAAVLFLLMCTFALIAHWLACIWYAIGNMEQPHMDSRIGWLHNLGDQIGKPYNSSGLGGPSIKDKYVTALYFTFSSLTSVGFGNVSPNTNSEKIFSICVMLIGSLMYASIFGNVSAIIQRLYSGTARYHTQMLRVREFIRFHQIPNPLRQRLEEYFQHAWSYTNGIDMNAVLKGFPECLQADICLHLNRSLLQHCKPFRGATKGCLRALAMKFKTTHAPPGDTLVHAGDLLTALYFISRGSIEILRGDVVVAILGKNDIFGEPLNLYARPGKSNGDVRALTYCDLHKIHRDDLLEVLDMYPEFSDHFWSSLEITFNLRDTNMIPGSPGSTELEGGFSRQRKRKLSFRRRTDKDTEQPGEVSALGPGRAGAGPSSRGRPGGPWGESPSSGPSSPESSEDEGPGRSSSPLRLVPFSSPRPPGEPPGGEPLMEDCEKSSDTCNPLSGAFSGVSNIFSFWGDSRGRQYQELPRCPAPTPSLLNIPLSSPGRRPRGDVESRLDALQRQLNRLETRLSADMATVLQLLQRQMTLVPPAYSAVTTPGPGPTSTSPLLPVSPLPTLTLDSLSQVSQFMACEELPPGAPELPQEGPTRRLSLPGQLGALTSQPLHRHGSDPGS
Format: functional
Conditions: read-out: AC50; further: assay procedure not described here
Value Type: AC50

1) C[C@H](CSC(=O)c1ccccc1)C(=O)N1C[C@@H](Sc2ccccc2)C[C@H]1C(=O)O = > 30 µM

Fill in the blank: the reported AC50 of Clc1ccc(C(c2ccccc2Cl)C(Cl)Cl)cc1 (stereo not drawn) is ____.
> 30 µM

Fill in the blank: the reported AC50 of `CNS(=O)(=O)Cc1ccc2[nH]cc(CCN(C)C)c2c1` is ____.
> 30 µM

----------
// each record: one item and its AC50 for Thromboxane A2 receptor (Homo sapiens)

1. COc1ccccc1N1CCN(CCCNc2cc(=O)n(C)c(=O)n2C)CC1 = > 30 µM
2. Cc1cn([C@H]2C=C[C@@H](CO)O2)c(=O)[nH]c1=O = > 30 µM
3. CC(C)C(=O)c1c(C(C)C)nn2ccccc12 = > 30 µM
4. NC(=O)OCC(COC(N)=O)c1ccccc1 [FELBAMATE] = > 10 µM
5. COc1cc2nc(N(C)CCCNC(=O)C3CCCO3)nc(N)c2cc1OC (configuration not stated) = > 30 µM
6. C[C@@H](O)[C@H]1C(=O)N2C(C(=O)O)=C(S[C@@H]3CN[C@H](C(=O)N(C)C)C3)[C@H](C)[C@H]12 = > 10 µM

Now look at this entry.
Which measured AC50 belongs to `COc1ccc2c3c1O[C@H]1C(=O)CC[C@@]4(O)[C@@H](C2)N(C)CC[C@]314` , tested on Thromboxane A2 receptor (Homo sapiens)?; further: assay procedure not described here
Sequence (P21731 whole entry): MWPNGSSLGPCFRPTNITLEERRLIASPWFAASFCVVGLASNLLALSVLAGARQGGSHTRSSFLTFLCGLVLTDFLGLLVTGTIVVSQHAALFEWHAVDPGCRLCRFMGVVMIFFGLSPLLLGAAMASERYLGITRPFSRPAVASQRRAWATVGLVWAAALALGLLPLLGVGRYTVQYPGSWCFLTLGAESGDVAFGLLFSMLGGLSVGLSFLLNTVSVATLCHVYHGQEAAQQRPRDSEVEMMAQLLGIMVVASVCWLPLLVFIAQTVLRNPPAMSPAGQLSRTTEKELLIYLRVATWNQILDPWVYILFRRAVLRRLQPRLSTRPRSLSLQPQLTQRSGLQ
> 30 µM

----------
Listed compounds paired with reported AC50
Molecular target: 5-hydroxytryptamine receptor 2B (Homo sapiens, UniProt P41595); further: assay procedure not described here
Sequence (P41595 whole entry): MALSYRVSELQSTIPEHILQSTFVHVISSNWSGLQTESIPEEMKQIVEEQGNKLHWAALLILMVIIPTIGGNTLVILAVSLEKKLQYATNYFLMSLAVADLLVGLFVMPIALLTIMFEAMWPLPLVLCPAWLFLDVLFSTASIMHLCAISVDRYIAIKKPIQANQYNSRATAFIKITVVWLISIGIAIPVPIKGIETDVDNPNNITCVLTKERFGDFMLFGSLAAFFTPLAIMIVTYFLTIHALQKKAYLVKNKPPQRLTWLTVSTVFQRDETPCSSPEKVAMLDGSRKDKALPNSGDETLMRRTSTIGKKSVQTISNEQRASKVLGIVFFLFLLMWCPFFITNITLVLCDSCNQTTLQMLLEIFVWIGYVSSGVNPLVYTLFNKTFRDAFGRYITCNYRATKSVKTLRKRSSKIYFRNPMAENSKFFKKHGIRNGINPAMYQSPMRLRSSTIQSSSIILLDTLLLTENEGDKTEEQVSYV
Assay type: functional, cell-based

Fill in the blank: the reported AC50 of COc1ccc(C(=O)Nc2ccccc2CCC2CCCCN2C)cc1 (stereo unspecified) [ENCAINIDE] is ____.
> 10 µM

Fill in the blank: the reported AC50 of O=P1(NCCCl)OCCCN1CCCl (stereo unspecified) [IFOSFAMIDE] is ____.
> 30 µM

----------
// each record: one item and its AC50 for Histamine H1 receptor (Homo sapiens)

1. Clc1ccc(CCCOCCCN2CCCCC2)cc1 = 11 µM

Now look at this entry.
Fill in the blank: the reported AC50 of `C[C@H]1CNCCc2ccc(Cl)cc21` is ____.
28 µM

Measured values drawn from ChEMBL document CHEMBL5291721 for this set.
